# Test Summary: protease stability score; higher = more stable; yeast display proteolysis, trypsin and chymotrypsin;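 also: relative to predicted unfolded state with 0 unfolded-like and 1 meaning tenfold more protease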
Measured protease stability score of individual entries
Endpoint Name: protease stability score

sequence_code=DDHEKIVQHLLEEIIEIWLTGNFEEHLKRFDPDMRLNVNGVEHHGRESNERWFNKQIERYKNATIHHRIESVDVQGDKVHSDGELIYIQGDKIIRTKIIVRLLVVNGRIKRIEIEMI endpoint_name="protease stability score" observed_measurement=1.31
sequence_code=DHEDEHSEEMEQLIFTWLQTGDWEAFMKFLDPRVILHIGDKTVIGREKFIEFIEQFKNIRMKIHDVQVQGNKIHIDVRTDIDGREYREHIHIHIVNGRIRHIEVRHH endpoint_name="protease stability score" observed_measurement=1.92
sequence_code=DEWEETAKKATKDQLRDVATGDEDSHESLLDPNVKLQVGDKTFHGREEIHRWLREFLNKIPNIRLEVKEIHTQGDFVILDMKMDIDGREIHVRIVMIKVDGRWFVNKLIII endpoint_name="protease stability score" observed_measurement=0.615
sequence_code=DELEELAEKIIRRLSELLLTGDFRELERFADPHTRVDINGKEFHGREFFSKLWLEMVRRFDHIEVHVHHMEIQGDKVFIDSRLHLLQGDKKEDREVLFILRKIDGRWILTVWKIR endpoint_name="protease stability score" observed_measurement=2.32
sequence_code=DKEDREAHFLARLFLKIEETGDEETMHKYFDPHVRWIQGDWHMHGREDIIEFVRHMGVTIQMHDHEDIKVFDGRVQIKGHKRVNINGKQFEISVRIDINVINGRIRKVQIDEK endpoint_name="protease stability score" observed_measurement=1.32
sequence_code=SEEERDAEENIRLYEELWRTGDFDIFKHLADPNVRLHINGRDVHGRENVSRLISEWRDEDIILRHFTVIDGRIEVHSEFHGQVDGQRRNTRIHIHLRKINGQWRLTEVKYE endpoint_name="protease stability score" observed_measurement=1.12

====

Measured protease stability score of individual entries
# Test Summary: protease stability score; higher = more stable; yeast display proteolysis, trypsin and chymotrypsin;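 also: relative to predicted unfolded state with 0 unfolded-like and 1 meaning tenfold more protease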
Endpoint Name: protease stability score

sequence_code=SEEDHFMKHLVDHWAKIEQTGDEHALHELLDPDARVSIKIGDKEHIVHGREYLIELWRQLGFKVIKIHDHTVFNGVVKLHGHWHFDGREVHVEQDLIIINGRVKTVLMRVK observed_measurement=1.72
sequence_code=DEDDEAVKRFIDEFVHSMRTGDEEKLYRLADPHVRSVIDGVEFVGMHWLTTELHHLRVQRLEFEFKDIHFQGDKAHVRGHLILTLHFNGREYVVRREVELIILKINGRWHLHEFIWR observed_measurement=1.68
sequence_code=SKEEDMMRKIVEDFSRAQWTGDEKKVDELLDPNTRSDINGVHIVGMEEYLRVMKHRGVEFKHSEIKDVNLQGDKATWDGIDHVNFNGKDIELQVHIYLRKINGRWSIHTLKVQ observed_measurement=0.386
sequence_code=DEDEHLARRLSTEVEKLMLTGDEHLIKRLLDPDARINVNGVDLHGRHHYITHLHRFLLEAGVDNVHSELTTWRVYGDYVHVHGTLHINGVRFNHHFLFEKVDGRWIIKWLDDR observed_measurement=1.12
sequence_code=DEEEDLQRHVADEFLHNLLTGNEHDIERLMDPNVKLIMDVNGVKLHFHGREQVLKLLREWRLDHWEVKRRHLVGDYAVLDGHQQGVIDGREVRTDSEIELRLYNGRMKEVTIRVR observed_measurement=1.47
sequence_code=NELEEEAHRKMEKVLRHLQTGDEDSLHRLLDPNVRLIVGDKEMHGRERAVEVLSRILKEMGVKHIKLRRFSVFNGVAHTDSELNQGEYVHNLHLVIEKVDGQWVMRSLHIE observed_measurement=1.41
sequence_code=DEVEKHLVHLTHRWIHSLLTGDEETISELLDPHARFNQGEWHHHGRELELRYWKEIRFKEMRISRYTAQGDKYHLDTELKGQVDGKEVRVRTHVHLVWVNGRAQSIYVEIH observed_measurement=1.02
sequence_code=DDHHEVARKIFFHHYNITQTGDEESIERLLDPNVRIIIDGKYIHGWEEILRLIRHIRIHRFNVHRVELQGEKLILDGFTDGSFDGKRITTTIDIYILKIDGRWFIQQIELR observed_measurement=1.46
sequence_code=DEWERLTEVMIRIFEEIVHTGDERVWEEMADPHVKVHIDGVHFHGREDLLYLLRKMGANVFDLKRSDIQGEKVYLDIQTEFNGQKRDSRFLIVKFNGRWLLESISIH observed_measurement=1.47
sequence_code=DEHKEEIKKFIEEWERSMITGDEDRLWELADPNTRLRQGEFEIHGMEILIEAEHRIVEKYKGLTIESIEMKHIDIINGVVVLYSKIRVRQGDKETEIFIIIYIIKINGQWRLHSLEIR observed_measurement=1.34
sequence_code=DEEERLQEELTKRLIHDFETGDFEAILELFDPHVRVFVNGKDDHGWEMLERSWREMGIDHMQIRDFELHHINGRLEVRIRTEIRVGDKTMDTIIILNVQKYDGRWRIHKVEITIR observed_measurement=1.24

Hey, just so you know, these numbers are from the NTF2 design screens of Basanta et al. (2020).
